Data provenance: patent US20210355104A1

Recorded IC50 for the following compounds
molecular target: Adenosine A2A receptor (Homo sapiens); experiment: Adenosine A2A receptor competitive binding assay (Tag-lite HTRF); conditions: Tag-lite adenosine A2A receptor ligand binding, 2 h room temperature; values separated by / are repeat determinations
Sequence (P29274 whole entry): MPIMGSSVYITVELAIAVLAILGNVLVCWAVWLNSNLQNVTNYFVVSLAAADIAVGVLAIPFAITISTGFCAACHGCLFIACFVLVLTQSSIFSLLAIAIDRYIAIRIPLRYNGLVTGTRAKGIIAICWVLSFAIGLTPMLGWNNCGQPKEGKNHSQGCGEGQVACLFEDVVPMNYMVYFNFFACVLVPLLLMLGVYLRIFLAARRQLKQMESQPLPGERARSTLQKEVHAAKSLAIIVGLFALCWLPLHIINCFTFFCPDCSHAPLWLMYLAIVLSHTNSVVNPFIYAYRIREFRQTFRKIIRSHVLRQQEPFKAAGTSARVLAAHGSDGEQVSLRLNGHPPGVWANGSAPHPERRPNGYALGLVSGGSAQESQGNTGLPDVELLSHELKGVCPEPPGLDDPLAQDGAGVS

>  <compound>
Cc1cc(-c2c(OCCc3ccc(N4CCN(S(C)(=O)=O)CC4)cc3)nc(N)nc2-c2ccc(F)cc2)cc(C(F)F)n1

>  <IC50 (nM)>
28

$$$$
>  <compound>
CCN(CC)C(=O)COc1nc(N)nc(-c2ccc(F)cc2)c1-c1cc(C)nc(C(F)(F)F)c1

>  <IC50 (nM)>
15.9

$$$$
>  <compound>
Cc1cc(-c2c(OCCN3CCN(S(C)(=O)=O)CC3)nc(N)nc2-c2ccc(F)cc2)cc(C(F)F)n1

>  <IC50 (nM)>
13.9

$$$$
>  <compound>
CCN(C(=O)COc1nc(N)nc(-c2ccc(F)cc2)c1-c1cc(C)nc(C(F)F)c1)c1ccccn1

>  <IC50 (nM)>
39.4

$$$$
>  <compound>
Cc1cc(-c2c(OCC3COCCO3)nc(N)nc2-c2ccc(F)cc2)cc(C(F)F)n1 (stereo not drawn)

>  <IC50 (nM)>
7.7

$$$$
>  <compound>
CNC(=O)NCCOc1nc(N)nc(-c2ccccc2)c1-c1cc(C)nc(C(F)(F)F)c1

>  <IC50 (nM)>
8.8

$$$$

* * *

target: Adenosine A2A receptor (Homo sapiens); assay: cAMP assay in 293A cells stably expressing the adenosine A2A receptor (CGS21680 stimulation, HTRF); type: cell-based; design: expressed in transfected cells; host or cells: 293A cells (Invitrogen, Cat# R705-07) infected with A2A-expressing lentivirus (custom packaged by Biosettia), puromycin selected; details: 293A-A2AR cells, 0.1% BSA, 1 uM CGS; read-out: cAMP (nM) 0.1% BSA, 1 uM CGS
Lab note: anything with IC50 below 2000 nM is marked Yes; values at 2000 nM or higher are marked No.

>  <molecule>
Cc1cc(-c2c(OCc3cc4ccccc4s3)nc(N)nc2-c2ccc(F)cc2)cc(C(F)F)n1 [Example 343]

>  <target_of_assay>
Adenosine A2A receptor (Homo sapiens)

>  <class_name>
Yes

$$$$
>  <molecule>
Cc1cc(-c2c(-c3cn(Cc4cccc(C(C)(C)O)n4)nn3)nc(N)nc2-c2cccc(C#N)c2C)cc(C(F)F)n1 [Example 312]

>  <target_of_assay>
Adenosine A2A receptor (Homo sapiens)

>  <class_name>
No

$$$$
>  <molecule>
Cc1cc(-c2c(OCc3nccn3C3CC(O)C3)nc(N)nc2-c2ccc(F)cc2)cc(C(F)F)n1 (stereo not drawn) [Example 210]

>  <target_of_assay>
Adenosine A2A receptor (Homo sapiens)

>  <class_name>
No

$$$$
>  <molecule>
Cc1cc(-c2c(O)nc(N)nc2-c2ccc(F)cc2)cc(C(F)F)n1 [Example 206]

>  <target_of_assay>
Adenosine A2A receptor (Homo sapiens)

>  <class_name>
No

$$$$
>  <molecule>
Cc1cc(-c2c(OCc3ccnc(C(C)(C)O)c3)nc(N)nc2-c2ccc(F)cc2)cc(C(F)F)n1 [Example 287]

>  <target_of_assay>
Adenosine A2A receptor (Homo sapiens)

>  <class_name>
Yes

$$$$
>  <molecule>
Cc1cc(-c2c(OC[C@H]3CC[C@H](C(=O)O)CC3)nc(N)nc2-c2ccc(F)cc2)cc(C(F)F)n1 [Example 279]

>  <target_of_assay>
Adenosine A2A receptor (Homo sapiens)

>  <class_name>
No

$$$$
